- target system: T1, human CTLA-4-Fc (Chimerigen) (human, UniProt P16410 36-161; P01857 99-330 = IgG part, limits assumed)
- T1 construct: extracellular domain;domain: Fc portion; Bought protein; also called hCTLA-4-Fc; huCTLA-4-Ig
- T1 sequence (P16410 other isoform, or with tags, fused parts or gaps mutant limits assumed): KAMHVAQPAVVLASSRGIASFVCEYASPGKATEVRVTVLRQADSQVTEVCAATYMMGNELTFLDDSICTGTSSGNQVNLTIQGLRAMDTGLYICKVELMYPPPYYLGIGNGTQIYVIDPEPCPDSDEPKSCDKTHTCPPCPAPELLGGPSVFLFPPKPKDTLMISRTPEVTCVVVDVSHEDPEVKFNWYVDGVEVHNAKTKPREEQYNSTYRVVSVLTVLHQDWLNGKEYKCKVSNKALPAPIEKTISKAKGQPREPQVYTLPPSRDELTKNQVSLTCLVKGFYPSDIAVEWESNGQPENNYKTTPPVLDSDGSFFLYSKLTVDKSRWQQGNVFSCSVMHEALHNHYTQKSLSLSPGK
- experimental details: SPR-Affinity towards hCTLA-4-Fc
Examples of binders with documented Kd follow.
Answer in nM, number only, no unit symbol.

| binder | result value |
| --- | --- |
| S140.4-O10 site-directed PEGylated at Cys 87 with 20k PEG (designed binder, chain 1 pos 87: Cys carrying linear 20 kDa PEG-maleimide, written C, also called O10_PEG(20k); S140.4-O10-PEG (20k)) QDSTSDLIPAPPLSKVPLQQNFQDNQFHGKWYVVGLAGNRILRDDQHPMNMYATIYELKEDKSYNVTSVISSHKKCEYTIATFVPGCQPGEFTLGNIKSYGDKTSYLVRVVSTDYNQYAVVFFKLAEDNAEFFAITIYGRTKELASELKENFIRFSKSLGLPENHIVFPVPIDQCIDGSAWSHPQFEK | 11 |
| S140.4-O10 site-directed PEGylated at Cys 87 with 12k PEG (designed binder, chain 1 pos 87: Cys carrying linear 12k PEG-maleimide on its thiol, written C, also called O10_PEG(12k); O10_S87C PEGylated monomer) QDSTSDLIPAPPLSKVPLQQNFQDNQFHGKWYVVGLAGNRILRDDQHPMNMYATIYELKEDKSYNVTSVISSHKKCEYTIATFVPGCQPGEFTLGNIKSYGDKTSYLVRVVSTDYNQYAVVFFKLAEDNAEFFAITIYGRTKELASELKENFIRFSKSLGLPENHIVFPVPIDQCIDGSAWSHPQFEK | 20 |

hNGAL mutein S140.4-O10 (designed binder, also called Onc I-002) QDSTSDLIPAPPLSKVPLQQNFQDNQFHGKWYVVGLAGNRILRDDQHPMNMYATIYELKEDKSYNVTSVISSHKKCEYTIATFVPGSQPGEFTLGNIKSYGDKTSYLVRVVSTDYNQYAVVFFKLAEDNAEFFAITIYGRTKELASELKENFIRFSKSLGLPENHIVFPVPIDQCIDG yielded Kd of 3.7
